assay: Inhibitory concentration to antagonise cation efflux in nAChR subtype human alpha3betaX, expressed in IMR-32 cells
observable: pIC50
Notebook: values listed as pIC50 are -log10 of the concentration (mol/L).

INSERT INTO measurements (smiles_record, experimental_result) VALUES
  ('CCCc1cncc(OC[C@@H]2CCCN2C)c1', 5.49);

Now consider the entry below.
Input CCCCc1cncc(OC[C@@H]2CCCN2C)c1 . Output pIC50: 5.30
